Values from PubChem BioAssay AID1259407

# System: CCRIS mutagenicity, Ames/micronucleus/aberration tests
# PROTOCOL_DETAILS: CCRIS mutagenicity studies
# CONDITION_INFO: Test System: E. COLI; Strain/Indicator: WP2 UVRA; Metabolic Activation: HAMSTER, LIVER, S-9; Method: STANDARD PLATE
Activity calls are given as the source filed them. The rule behind the calls is not given here.
Hi there, use one of these labels in your reply, thanks! TRUE (active), FALSE (inactive)

I'd appreciate the recorded outcome for Nc1ccc2c(c1)C(=O)c1ccccc1C2=O from this test.
FALSE

Look up the recorded call for CCOc1ccc(NC(C)=O)cc1 in this test.
FALSE

For O=P1(N(CCCl)CCCl)NCCCO1 (centres undefined) , what call appears in the results of this test?
FALSE

What call does the record list for c1ccc2c(c1)ccc1ccccc12 ?
FALSE

// return assay outcome for NC(N)=S
FALSE

# lookup: test call for CNNCc1ccc(C(=O)NC(C)C)cc1
FALSE

Field: outcome | Entry: c1cc2ccc3cccc4ccc(c1)c2c34
FALSE

Please indicate how the test categorized COS(C)(=O)=O .
TRUE

# outcome recorded in this test, key = Nc1ccccc1
FALSE

----------
# Test system: CCRIS mutagenicity, Ames/micronucleus/aberration tests
# PROTOCOL_DETAILS: CCRIS mutagenicity studies
# CONDITION_INFO: Test System: AMES SALMONELLA TYPHIMURIUM; Strain/Indicator: TA1537; Metabolic Activation: S-9; Method: STANDARD PLATE
# Description: The CCRIS database contains chemical records with carcinogenicity, mutagenicity, tumor promotion, and tumor inhibition test results. It was developed by the National Cancer Institute (NCI). Data are derived from studies cited in primary journals, current awareness tools, NCI reports, and other sources. Test results have been reviewed by experts in carcinogenesis and mutagenesis. CCRIS provides historical information from the years 1985 - 2011. It is no longer updated. […]
The source made the active and inactive calls. The rule behind the calls is not given here.
QUANTITY_NAME: mutagenic call

Worked examples, 4 molecules total:
MOLECULE | OBSERVED_RESULT
CC(=O)Nc1snc2c(Cl)cc(Cl)cc12 | inactive; negative
C[C@@H]1O[C@H](C)[C@@H](O)[C@H](O)[C@@H]1OS(=O)(=O)O | inactive; negative
CCC(=O)Nc1snc2ccccc12 | inactive; negative
C[C@]12CC[C@H](OC(=O)COc3ccc(N(CCCl)CCCl)cc3)C[C@@H]1CC[C@@H]1[C@@H]2CC[C@]2(C)NC(=O)CC[C@@H]12 | inactive; negative

Please turn your attention to the following entry.
# get_value(readout= mutagenic call, system= CCRIS mutagenicity, Ames/micronucleus/aberration tests) for OC(Nc1snc2ccccc12)C(Cl)(Cl)Cl (stereo not given)
inactive; negative

----------
# Tested on: CCRIS mutagenicity, Ames/micronucleus/aberration tests
# PROTOCOL_DETAILS: CCRIS mutagenicity studies
# CONDITION_INFO: Test System: CHINESE HAMSTER V-79; Strain/Indicator: V-79 (HGPRT)/6-THIOGUANINE; Metabolic Activation: NONE
# Description: The CCRIS database contains chemical records with carcinogenicity, mutagenicity, tumor promotion, and tumor inhibition test results. It was developed by the National Cancer Institute (NCI). Data are derived from studies cited in primary journals, current awareness tools, NCI reports, and other sources. Test results have been reviewed by experts in carcinogenesis and mutagenesis. CCRIS provides historical information from the years 1985 - 2011. It is no longer updated. […]
Active and inactive are the calls of the source. No rule for the calls is given here.
Please answer using one outcome listed in active, inactive

Could you please tell me the result logged for CCC[C@]1(O)CC[C@H]2[C@@H]3CC[C@H]4CC(=O)C[C@H](C)[C@]4(C)[C@H]3CC[C@@]21C in this assay?
inactive

// return assay outcome for CN(C)P(=O)(N(C)C)N(C)C
inactive

Just curious, what result did Cc1c(F)c(N2CCNC(C)C2)cc2c1c(=O)c(C(=O)O)cn2C1CC1 (stereo not given) get here?
inactive

What was the test verdict on F ?
inactive

Name the outcome recorded for CCN(CC)CCNC(=O)c1cc(Cl)c(N)cc1OC in the assay.
active

----------
# Test system: CCRIS mutagenicity, Ames/micronucleus/aberration tests
# PROTOCOL_DETAILS: CCRIS mutagenicity studies
# CONDITION_INFO: Test System: CHINESE HAMSTER V-79; Strain/Indicator: V-79/6-THIOGUANINE; Metabolic Activation: NONE; Method: STANDARD PLATE
# Source text: The CCRIS database contains chemical records with carcinogenicity, mutagenicity, tumor promotion, and tumor inhibition test results. It was developed by the National Cancer Institute (NCI). Data are derived from studies cited in primary journals, current awareness tools, NCI reports, and other sources. Test results have been reviewed by experts in carcinogenesis and mutagenesis. CCRIS provides historical information from the years 1985 - 2011. It is no longer updated. […]
Activity calls are given as the source filed them. How the calls were made is not given here.
Hi there, use one of these labels in your reply, thanks! yes (1) (active), no (0) (inactive)

What classification did Oc1c(Cl)cccc1Cl end up with in this test?
no (0)

Entry CN(N=O)C(N)=O : call = ?
yes (1)

Call for entry CCC/C=C/C=O :
yes (1)

Status in this test for COc1c(O)c(Cl)c(Cl)c(Cl)c1Cl ?
no (0)

Check the results log: what was the call for O=C(O)Cc1ccc(O)c(O)c1 ?
yes (1)

Which outcome was assigned to CC/C=C/C=O in this test?
yes (1)

Hi team, can someone confirm the assay call for CN(C)CCCNc1c2ccccc2nc2c([N+](=O)[O-])cccc12 ?
yes (1)

For this compound, state the assay outcome: CCCC/C=C/C=O
yes (1)

Please let me know the test result on file for COS(C)(=O)=O .
yes (1)

Short answer needed: outcome of this test for Oc1c(Cl)cc(Cl)c(Cl)c1O ?
yes (1)

Field: outcome | Entry: COc1cc(Cl)c(Cl)c(Cl)c1O
yes (1)

Returns: the outcome recorded for Oc1cc(Cl)c(Cl)c(Cl)c1O in this assay.
no (0)

----------
# Tested on: CCRIS mutagenicity, Ames/micronucleus/aberration tests
# PROTOCOL_DETAILS: CCRIS mutagenicity studies
# CONDITION_INFO: Test System: AMES SALMONELLA TYPHIMURIUM; Strain/Indicator: TA1537; Metabolic Activation: HAMSTER, LIVER, S-9, AROCLOR 1254; Method: PREINCUBATION
# Text: The CCRIS database contains chemical records with carcinogenicity, mutagenicity, tumor promotion, and tumor inhibition test results. It was developed by the National Cancer Institute (NCI). Data are derived from studies cited in primary journals, current awareness tools, NCI reports, and other sources. Test results have been reviewed by experts in carcinogenesis and mutagenesis. CCRIS provides historical information from the years 1985 - 2011. It is no longer updated. […]
The source made the active and inactive calls. How the calls were made is not given here.
Pick from active, inactive when you respond.

Which outcome did this test record for the molecule CC(Cl)CCCC(Cl)CCCC(Cl)CCCC(Cl)CCCC(Cl)CCCC(Cl)CCCl (stereo not drawn) ?
inactive

Which outcome did this test record for the molecule Cc1ccccc1C ?
inactive

State the result this test recorded for ClC(Br)Br .
inactive

Please let me know the test result on file for OC[P+](CO)(CO)CO .
inactive

Please let me know the test result on file for CCCCOCCOP(=O)(OCCOCCCC)OCCOCCCC .
inactive

Name the outcome recorded for C1CNCCN1 in the assay.
inactive

Outcome logged for CC1(C)COC1=O in this assay:
inactive

For ClC(Cl)=C(Cl)Cl , what call appears in the results of this test?
inactive

Query: recorded result category for O=[N+]([O-])c1c(Cl)c(Cl)cc(Cl)c1Cl in this test
inactive

Can you look up the reported call for CC1=CC[C@H]2C(C)=CC[C@@H](C(C)C)[C@@H]2C1 for me?
inactive

# lookup: test call for OCc1ccccc1
inactive

GET /call?item= CN(C)C(=O)Nc1ccc(Cl)cc1 returns the recorded outcome of this test.
inactive

Returns: the outcome recorded for ClC=C(Cl)Cl in this assay.
inactive

// return assay outcome for CCCCOC(=O)c1ccc(N)cc1
inactive

# lookup: test call for c1cc(OCC2CO2)cc(OCC2CO2)c1 (stereo not drawn)
inactive

In this assay, the call recorded for CCn1c2ccccc2c2cc(N)ccc21 was what?
active

Dear all, I need the recorded test outcome for CC(C)NCC(O)c1ccc(O)c(O)c1 (stereo not drawn) , thank you.
inactive

Recorded call for Clc1cccc(Cl)c1Cl ?
inactive

----------
# Test system: CCRIS mutagenicity, Ames/micronucleus/aberration tests
# PROTOCOL_DETAILS: CCRIS mutagenicity studies
# CONDITION_INFO: Test System: AMES SALMONELLA TYPHIMURIUM; Strain/Indicator: TA98; Metabolic Activation: NONE; Method: STANDARD PLATE
Calls of active or inactive are those of the source. How the calls were made is not given here.
Response enum: active, inactive

Outcome logged for Cc1cn2c(N=O)c(-c3ccc([N+](=O)[O-])cc3)nc2s1 in this assay:
active

Query: recorded result category for ONc1ccc(Oc2ccccc2)cc1 in this test
active

Called result for O=C(O)/C=C\C(=O)O
inactive

Give the logged outcome of this assay for the following compound: Cc1c(-c2ccccc2)oc2c(C(=O)OCCN3CCCCC3)cccc2c1=O
inactive

Hi, sorry to bother you, what did the test record for COc1ccc(N=Nc2ccc(N(C)C)cc2)cc1 ?
active

What was the test verdict on CC(C)OC(=O)COc1ccc(Cl)cc1Cl ?
inactive

Returns: the outcome recorded for CCN(CCCl)CCCNc1c2ccccc2nc2ccccc12 in this assay.
active

Which outcome was assigned to Cn1cnc2ccc([N+](=O)[O-])cc21 in this test?
active

Answer briefly: the call reported for CC1(C)CC(C(=O)O)C(C)(C)N1[O] (centres undefined) in this assay.
inactive

Would you mind telling me which call this test gave N#CC1=C(C#N)SCCS1 ?
inactive

What is the recorded call for this compound in the test? CCOC(=O)c1cccc2cccnc12
inactive

# outcome recorded in this test, key = Cc1ccc(N)cc1O
inactive

Hi, sorry to bother you, what did the test record for COP(=S)(OC)SCN1C(=O)c2ccccc2C1=O ?
inactive

Could you kindly confirm the outcome this assay logged for COS(C)(=O)=O ?
inactive
